Tested on: HepG2 cell
observation-type: At least ⅔ genes +?

| smiles-string | observation-type | result |
| --- | --- | --- |
| COc1cc2c(c3oc(=O)c4c(c13)CCC4=O)[C@@H]1C=CO[C@@H]1O2 | At least ⅔ genes +? | GTX |
| Cn1c(N)nc2c3cccnc3ccc21 | At least ⅔ genes +? | GTX |
| O=c1c(O)c(-c2ccc(O)c(O)c2)oc2cc(O)cc(O)c12 | At least ⅔ genes +? | NGTX |
| COc1ccc(N)cc1 | At least ⅔ genes +? | GTX |
| O=C1O[C@H]([C@@H](O)CO)C(O)=C1O | At least ⅔ genes +? | GTX |
| ClC(Cl)Br | At least ⅔ genes +? | NGTX |
| ClCc1ccccn1 | At least ⅔ genes +? | NGTX |
| CCC1(c2ccccc2)C(=O)NC(=O)NC1=O | At least ⅔ genes +? | NGTX |
| COc1cc(/C=C/C(=O)CC(=O)/C=C/c2ccc(O)c(OC)c2)ccc1O | At least ⅔ genes +? | NGTX |
| CC/C(=C(/CC)c1ccc(O)cc1)c1ccc(O)cc1 | At least ⅔ genes +? | GTX |
| COC(=O)[C@H]1[C@H]2C[C@@H]3c4[nH]c5cc(OC)ccc5c4CCN3C[C@H]2C[C@@H](OC(=O)c2cc(OC)c(OC)c(OC)c2)[C@@H]1OC | At least ⅔ genes +? | NGTX |
| CCN(N=O)C(N)=O | At least ⅔ genes +? | GTX |
